tested on: intracellular S. flexneri SF_nanoluc in Caco-2 cells on Cytodex 3 beads; test: microbe, parasite or virus in culture; conditions: Shigella flexneri, Caco-2, read-out: IC50 T3, 2nd Batch, replicate T3
measured.attribute: IC50 (nM)
Enter your answer as a number in nM; do not include the unit.

molecule	IC50 (nM)
CO/N=C(\C(=O)N[C@@H]1C(=O)N2C(C(=O)O)=C(CSc3nc(=O)c(=O)[nH]n3C)CS[C@H]12)c1csc(N)n1 [Ceftriaxone, reference compound]	19.6
C[C@@H](O)[C@H]1C(=O)N2C(C(=O)O)=C(S[C@@H]3CN[C@H](C(=O)N(C)C)C3)[C@H](C)[C@H]12 [Meropenem, reference compound]	404
CC[C@H]1OC(=O)[C@H](C)[C@@H](O[C@H]2C[C@@](C)(OC)[C@@H](O)[C@H](C)O2)[C@H](C)[C@@H](O[C@@H]2O[C@H](C)C[C@H](N(C)C)[C@H]2O)[C@](C)(O)C[C@@H](C)CN(C)[C@H](C)[C@@H](O)[C@]1(C)O [Azithromycin, reference compound]	624
C[C@@H](O)[C@H]1C(=O)N2C(C(=O)O)=C([C@H]3CCCO3)S[C@H]12 [Faropenem, reference compound]	1430
CN(C)[C@@H]1C(O)=C(C(N)=O)C(=O)[C@@]2(O)C(O)=C3C(=O)c4c(O)cccc4[C@@](C)(O)[C@H]3C[C@@H]12 [Tetracycline, reference compound]	1190

Lab note: CNC(C)C1CCC(N)C(OC2C(N)CC(N)C(OC3OCC(C)(O)C(NC)C3O)C2O)O1 (stereo not shown) [Gentamicin, reference compound] gave IC50 of 1170

For record COc1c(N2C[C@@H]3CCCN[C@@H]3C2)c(F)cc2c(=O)c(C(=O)O)cn(C3CC3)c12 [Moxifloxacin, reference compound] the listed IC50 is 23.5

----------
assay: Experimental Chromlog / ChromLogD pH7.4 and PFI; type: physicochemical; conditions: pH7.4, experimental
measured.attribute: Chromlog pH7.4 (Expt)

compound	reported.result
N#Cc1cnn2c1[nH]c(=O)c1sc(-c3ccccc3)cc12	2.5
COc1ccc(C2Nc3nc4ccccc4n3C(C)=C2C(=O)Nc2ccccc2)cc1 (stereo not shown)	4.77
CC(=O)c1cccc(NC(=O)Nc2ccc(S(=O)(=O)Nc3cc(C)on3)cc2)c1	2.04

Form field Chromlog pH7.4 (Expt), entry CCn1c(-c2nonc2N)nc2c(-c3cccc(Cl)c3)ncc(C(O)c3ccn(C)n3)c21 (stereo not shown) : 4.75

Recorded result, Cc1nn(-c2ccccc2)c(C)c1NC(=O)CN1C(=O)NC(C)(c2ccco2)C1=O (stereo not shown) , Chromlog pH7.4 (Expt): 2.93

Chromlog pH7.4 (Expt) reported for this compound `CC(C)c1noc2ncc(C(=O)c3ccccc3O)cc12` : 6.05

Record COc1ccc2c(CC(=O)NC(c3ccc(Cl)cc3)C3CC3)coc2c1 (stereo not shown) . Reported Chromlog pH7.4 (Expt): 6.43

----------
test: CAD solubility; format: physicochemical; settings: Table 1
measured.attribute: CAD sol (µg/mL)
Enter your answer as a number in µg/mL; do not include the unit.

Examples from the recorded data:
compound	endpoint.unit	CAD sol
COc1ccc(C2Nc3nc4ccccc4n3C(C)=C2C(=O)Nc2ccccc2)cc1 (stereo not shown)	µg/mL	10
CCn1c(-c2nonc2N)nc2c(-c3cccc(Cl)c3)ncc(C(O)c3ccn(C)n3)c21 (stereo not shown)	µg/mL	10
N#Cc1cnn2c1[nH]c(=O)c1sc(-c3ccccc3)cc12	µg/mL	17
CC(C)c1noc2ncc(C(=O)c3ccccc3O)cc12	µg/mL	44

Consider now this further compound.
Input COc1ccc2c(CC(=O)NC(c3ccc(Cl)cc3)C3CC3)coc2c1 (stereo not shown) . Output CAD sol: 53
